- studyTarget: MERTK (UniProt Q12866)
- Sequence (Q12866 whole entry, looked up): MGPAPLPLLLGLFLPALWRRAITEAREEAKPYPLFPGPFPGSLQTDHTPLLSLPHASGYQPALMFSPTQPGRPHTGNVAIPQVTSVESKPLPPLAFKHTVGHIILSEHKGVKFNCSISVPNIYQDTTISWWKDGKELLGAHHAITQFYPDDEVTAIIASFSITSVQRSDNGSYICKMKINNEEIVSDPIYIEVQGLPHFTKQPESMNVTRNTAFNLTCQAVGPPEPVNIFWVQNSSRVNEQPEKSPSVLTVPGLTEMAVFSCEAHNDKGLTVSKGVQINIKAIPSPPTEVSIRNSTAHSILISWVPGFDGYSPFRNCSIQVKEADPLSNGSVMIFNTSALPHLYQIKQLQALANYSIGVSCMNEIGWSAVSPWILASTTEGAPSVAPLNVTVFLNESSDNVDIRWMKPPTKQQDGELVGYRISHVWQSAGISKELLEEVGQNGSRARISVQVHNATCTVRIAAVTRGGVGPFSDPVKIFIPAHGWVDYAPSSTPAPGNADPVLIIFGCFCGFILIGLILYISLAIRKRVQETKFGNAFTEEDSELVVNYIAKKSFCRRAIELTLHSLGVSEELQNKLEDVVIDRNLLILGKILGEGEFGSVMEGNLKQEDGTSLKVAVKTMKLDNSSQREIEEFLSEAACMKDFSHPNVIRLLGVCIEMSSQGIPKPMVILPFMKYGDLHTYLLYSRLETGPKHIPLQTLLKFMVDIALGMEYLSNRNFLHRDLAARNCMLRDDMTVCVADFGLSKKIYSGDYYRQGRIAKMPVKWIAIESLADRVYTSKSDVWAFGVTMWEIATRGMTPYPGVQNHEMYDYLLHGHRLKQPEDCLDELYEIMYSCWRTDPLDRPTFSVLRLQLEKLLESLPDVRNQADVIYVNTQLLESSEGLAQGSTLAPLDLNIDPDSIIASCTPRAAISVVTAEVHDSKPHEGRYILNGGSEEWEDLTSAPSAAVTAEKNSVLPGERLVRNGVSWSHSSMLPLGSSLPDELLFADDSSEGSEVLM
- assayComment: phosphorylation enrichment, bacterial display (enrichment ratio); higher = better substrate or ligand; peptides without Tyr show the background
measuredQuantity: phosphorylation enrichment
Give the figure by itself; no unit, no explanation.

Below, each entry is followed by its recorded phosphorylation enrichment result.
- TSSAGYRRTPS [ABI1_Y333_G331A]: 0.392
- HLMLQYDAVVN [SLC25A32_Y152_R147H]: 1.27
- TDVSLYPSGGT [TENM4_Y399]: 0.435
- NYNPNYCFAGK [ALK_Y1096_D1091N]: 1.1
- TMKSHYMELYD [BBS2_Y644_R643H]: 1.34
- PKGTGYIKTEL [STAT1_Y701]: 0.694
- MCITRYERESQ [PRNP_Y218_Q217R]: 0.457
- GIKAAYEAERG [LMNA_Y81_L85R]: 0.347

phosphorylation enrichment reported for this sequence PADSGYPAYLG [ATP6V1A_Y374] : 0.417

phosphorylation enrichment reported for this sequence VYSIDYYRVGG [NTRK2_Y706_T704I] : 9.3

---

- studyTarget: MERTK (UniProt Q12866)
- assayComment: phosphorylation enrichment, bacterial display (enrichment ratio); higher = better substrate or ligand; peptides without Tyr show the background
Label scheme for phosphorylation enrichment: lower than 0.4 is n, 0.4 and above is y.

Here's what some known entries look like.
* FQNSLYAPDYS [FAM92A_Y226_R222Q] | y
* RSRQIYDAFIM [GRK3_Y109_YF] | y
* KLVDVYVNDAF [PGK1_Y161_G158V] | y
* LPEHPYHSRPR [NDUFA8_Y142_N140H] | y

// switching to the query sequence
Form field: phosphorylation enrichment at least 0.4? Entry: TEAEPYYRSLR [NPHS1_Y1138]
n

---

- studyTarget: EPHB1 (UniProt P54762)
- Sequence (P54762 whole entry, looked up): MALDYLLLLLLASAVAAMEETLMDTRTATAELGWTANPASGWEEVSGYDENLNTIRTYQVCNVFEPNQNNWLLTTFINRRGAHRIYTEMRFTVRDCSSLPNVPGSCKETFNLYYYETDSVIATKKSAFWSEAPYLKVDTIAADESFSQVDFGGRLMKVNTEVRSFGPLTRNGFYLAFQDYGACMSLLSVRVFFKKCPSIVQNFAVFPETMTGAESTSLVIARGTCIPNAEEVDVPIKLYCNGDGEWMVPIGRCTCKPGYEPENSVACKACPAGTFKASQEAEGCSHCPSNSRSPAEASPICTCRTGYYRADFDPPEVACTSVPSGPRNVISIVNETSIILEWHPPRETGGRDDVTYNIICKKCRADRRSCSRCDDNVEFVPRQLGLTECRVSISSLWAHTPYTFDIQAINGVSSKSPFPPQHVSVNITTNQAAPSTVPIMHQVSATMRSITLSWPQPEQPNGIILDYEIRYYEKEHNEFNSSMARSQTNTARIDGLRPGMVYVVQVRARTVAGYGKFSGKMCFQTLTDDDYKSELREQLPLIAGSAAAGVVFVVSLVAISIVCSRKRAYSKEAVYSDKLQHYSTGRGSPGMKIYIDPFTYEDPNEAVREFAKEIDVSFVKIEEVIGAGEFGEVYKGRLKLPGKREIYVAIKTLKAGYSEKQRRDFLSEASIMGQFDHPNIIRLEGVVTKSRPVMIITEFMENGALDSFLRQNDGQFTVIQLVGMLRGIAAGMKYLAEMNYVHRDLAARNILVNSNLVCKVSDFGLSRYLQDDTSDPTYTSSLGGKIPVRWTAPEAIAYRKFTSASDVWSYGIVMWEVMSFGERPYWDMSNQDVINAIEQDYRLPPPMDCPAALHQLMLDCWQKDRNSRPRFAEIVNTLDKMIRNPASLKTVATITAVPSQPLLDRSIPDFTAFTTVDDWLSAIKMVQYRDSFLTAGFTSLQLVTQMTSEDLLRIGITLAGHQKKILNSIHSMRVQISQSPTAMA
- assayComment: phosphorylation enrichment, bacterial display (enrichment ratio); higher = better substrate or ligand; peptides without Tyr show the background
// values below are reported phosphorylation enrichment
Give the figure by itself; no unit, no explanation.

- CTTTHYNYMCN [TP53_Y234_I232T]: 0.563
- RFLTRYIFNRE [HLA-DQB1_Y62_V59L_YF]: 0.624
- IGEGTSGVVFK [CDK2_Y15_Y15S_YF]: 0.418

phosphorylation enrichment reported for this sequence FSPCDYQPCLA [TNS1_Y798_Y796C_YF] : 11.6

phosphorylation enrichment reported for this sequence AIIEEYLHLSD [EIF4G1_Y1253_N1257S] : 0.714

phosphorylation enrichment reported for this sequence VFSTDYFRVGG [NTRK2_Y706_YF] : 0.826

phosphorylation enrichment reported for this sequence NFFDTCIKTCL [IQGAP2_Y1445_Y1445C_YF] : 0.484

---

- studyTarget: EPHB1 (UniProt P54762)
- assayComment: phosphorylation enrichment, bacterial display (enrichment ratio); higher = better substrate or ligand; peptides without Tyr show the background
measuredQuantity: phosphorylation enrichment

Below, each entry is followed by its recorded phosphorylation enrichment result.
- EDGRLYAVKCS [PKMYT1_Y136_R140C]: 0.594
- RLGLQYSQGLV [EIF2B4_Y214]: 0.676
- AMGPVYQAAAL [HYOU1_Y421_A419P]: 0.933
- SPPILYSFFLN [FCRL6_Y239_D244N_YF]: 3.03

phosphorylation enrichment reported for this sequence RREQDYTNLPS [CSF1R_Y923_R921Q] : 0.573

phosphorylation enrichment reported for this sequence ISRVLYPNDNF [PYGM_Y281] : 0.438

phosphorylation enrichment reported for this sequence FMCKVYSDPQP [FGFR1_Y280] : 0.752

phosphorylation enrichment reported for this sequence KLNNEHLELNY [MME_Y497_Y497H] : 0.402

phosphorylation enrichment reported for this sequence LFNQDYPIHCV [GATM_Y227_S231C_YF] : 1.32

phosphorylation enrichment reported for this sequence GVSYIYTIDGS [DCX_Y105_R102S] : 0.618

phosphorylation enrichment reported for this sequence STEAIYWRYSK [SH3PXD2B_Y42_R43W] : 1.44

---

- studyTarget: SHP2-C SH2;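 note: peptide library displayed on the E. coli surface as eCPX fusions, selected cells deep-sequenced, score is each peptide's frequency after selection divided by its frequency in the input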
- assayComment: SH2 binding enrichment of the phosphorylated peptide, bacterial display (enrichment ratio); higher = better substrate or ligand; peptides without Tyr show the background
measuredQuantity: SH2 binding enrichment
Give the figure by itself; no unit, no explanation.

Below, each entry is followed by its recorded SH2 binding enrichment result.
* NFRPGYNNFFN [USH2A_Y467_YF] | 0.686
* GRSTFYWPSPR [GAGE12J_Y10_R13S_YF] | 1.64
* FRRITYFNWRH [PDE6B_Y556_H557Y_YF] | 1.99

Now consider a different sequence.
GET /values?item= QQMGTYGVRAA [ICAM2_Y260_R256Q] &system= SHP2-C SH2 returns SH2 binding enrichment: 0.373

---

- Tested on: c-Abl (mouse)
- assayComment: phosphorylation enrichment, bacterial display (enrichment ratio); higher = better substrate or ligand; peptides without Tyr show the background
measuredQuantity: phosphorylation enrichment
Give the figure by itself; no unit, no explanation.

* SFCFRYRCAPR [SUMF1_Y344_A348P_YF] | 0.75
* CTTTHYNYMCN [TP53_Y234_I232T] | 0.484
* TIQSMYGCDVG [HLA-B_Y123_L119I] | 0.68
* VVAHQYSFAPD [TNS3_Y601] | 0.504
* GRVFVYRLSEQ [ITGAE_Y551_YF] | 0.655
* LSSEMCVKSYT [F5_Y2149_Y2149C] | 1.59

phosphorylation enrichment reported for this sequence FMCKVYSDPQP [FGFR1_Y280] : 0.99

phosphorylation enrichment reported for this sequence AEFGLYGAMVW [VSX2_Y222_R227W_YF] : 0.995

phosphorylation enrichment reported for this sequence LVRAFYCERRW [CARD11_Y970_R975W] : 0.695

phosphorylation enrichment reported for this sequence CEAMEYPESKQ [BTK_Y511_L512P] : 0.952

phosphorylation enrichment reported for this sequence RETSLYKACER [ASB2_Y162_P160S] : 0.85

phosphorylation enrichment reported for this sequence DLTQDYEEWKR [ORC6_Y232] : 0.84

phosphorylation enrichment reported for this sequence EIVFVYVKKRS [DNAI2_Y7_YF] : 0.585

phosphorylation enrichment reported for this sequence HESEIYCKVCY [CSRP3_Y57] : 1.01

phosphorylation enrichment reported for this sequence ITQRAYRRHLL [SCN1A_Y1926_I1922T] : 0.547

phosphorylation enrichment reported for this sequence NNRVFYGNSDR [RS1_Y177] : 0.499

phosphorylation enrichment reported for this sequence IFRASYFRRGD [LTK_Y676_YF] : 0.63

phosphorylation enrichment reported for this sequence LPKEQYLFTKE [AFG3L2_Y614_YF] : 0.551

phosphorylation enrichment reported for this sequence PPKFFDTRKLL [CYBB_Y41_Y41D] : 0.759

phosphorylation enrichment reported for this sequence EEGRVYVYHLS [ITGAE_Y549_R552H] : 0.713

phosphorylation enrichment reported for this sequence LLQAEYWHDPI [PPT1_Y185_V181L] : 1.62

phosphorylation enrichment reported for this sequence IRRQGYSHRIL [MYO3B_Y993] : 0.469

phosphorylation enrichment reported for this sequence LFEDCYLLGTS [ASS1_Y87_R86C_YF] : 1.17

phosphorylation enrichment reported for this sequence MKSIKYMDKEI [CCDC60_Y41] : 0.457

phosphorylation enrichment reported for this sequence SHNKYYMLVAR [MFSD8_Y134] : 0.6

phosphorylation enrichment reported for this sequence HNQDGYSFPSR [LDLR_Y845_YF] : 1.31

phosphorylation enrichment reported for this sequence PADSGYPAYLG [ATP6V1A_Y374] : 1.14

phosphorylation enrichment reported for this sequence EPAVLYNLKDR [MYH7_Y103] : 0.571

phosphorylation enrichment reported for this sequence PGQAAYQKVVA [HBB_Y131_V127G] : 0.491

phosphorylation enrichment reported for this sequence SIDLGYHKDLQ [NF1_Y1169_G1166D] : 0.557

---

// values below are reported phosphorylation enrichment
- studyTarget: Hck (UniProt P08631)
- Sequence (P08631 whole entry, looked up): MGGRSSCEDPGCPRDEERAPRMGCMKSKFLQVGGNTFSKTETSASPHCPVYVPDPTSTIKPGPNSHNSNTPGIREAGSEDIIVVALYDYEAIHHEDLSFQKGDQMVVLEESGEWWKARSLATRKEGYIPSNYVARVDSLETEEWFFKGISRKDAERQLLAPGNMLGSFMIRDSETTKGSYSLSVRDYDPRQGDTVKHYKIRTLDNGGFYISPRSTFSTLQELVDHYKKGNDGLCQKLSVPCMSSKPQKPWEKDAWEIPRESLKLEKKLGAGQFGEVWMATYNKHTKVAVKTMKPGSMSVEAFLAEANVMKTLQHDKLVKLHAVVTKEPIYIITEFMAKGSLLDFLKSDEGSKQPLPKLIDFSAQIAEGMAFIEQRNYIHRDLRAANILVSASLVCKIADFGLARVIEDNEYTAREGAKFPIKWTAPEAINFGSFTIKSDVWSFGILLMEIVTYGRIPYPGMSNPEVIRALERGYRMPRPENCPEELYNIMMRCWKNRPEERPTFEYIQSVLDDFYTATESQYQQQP
- assayComment: phosphorylation enrichment, bacterial display (enrichment ratio); higher = better substrate or ligand; peptides without Tyr show the background
Give the figure by itself; no unit, no explanation.

Below, each entry is followed by its recorded phosphorylation enrichment result.
- FSQQTYYPVSN [ABCD1_Y180_R182P]: 5.05
- HFGCIYHGTLL [MET_Y1093_V1092I]: 0.949
- EAIAKYDLKAT [GRB2_Y7_F9L]: 0.458

phosphorylation enrichment reported for this sequence PRIHSYRGHLW [VHL_Y112_R107P] : 0.713

phosphorylation enrichment reported for this sequence VFLGAYDHFLP [SLC22A5_Y486_R488H_YF] : 2.73

phosphorylation enrichment reported for this sequence HTVVSYAEVRA [CLOCK_Y378] : 0.899

phosphorylation enrichment reported for this sequence RRGTGYTLPLP [MAGEC3_Y152_S155P] : 0.607

phosphorylation enrichment reported for this sequence EFLQKYKGFKI [SYNE1_Y6953_YF] : 0.411

phosphorylation enrichment reported for this sequence EDGRLYAVKCS [PKMYT1_Y136_R140C] : 0.792
